Values from patent US9328138B2

I'd appreciate it if you could supply pKi values for the items below.
Molecular target: HCV genotype 1b (BK) NS3 modified enzyme with a R155K mutation (Hepatitis C virus genotype 1b, UniProt P26663, R1181K)
Construct: HCV genotype 1b (BK) NS3 modified enzyme
Experiment: HCV NS3 protease time-resolved fluorescence (TRF) assay, genotype 1b R155K
Assay type: biochemical
Settings: Ki 1b R155K, second of two values printed in the cell (not explained)
Counter-ions that a name gives are not always drawn.
// pKi is dimensionless: -log10 of concentration (M)

Could you tell me which pKi is on file for C=C[C@@H]1CC1(NC(=O)[C@@H]1C[C@@H]2CN1C(=O)[C@H](C1CCCCC1)NC(=O)O[C@@H]1C[C@H]1CCCCCc1c(nc3ccccc3c1OC1CCNCC1F)O2)C(=O)NS(=O)(=O)C1(C)CC1 (stereo in doubt) [Example 293] ? 9.86

Could you tell me which pKi is on file for C=C[C@@H]1C[C@]1(NC(=O)[C@@H]1C[C@@H]2CN1C(=O)[C@H](C1CCCCC1)NC(=O)O[C@@H]1C[C@H]1CCCCCc1c(nc3ccccc3c1OC1CCOCC1)O2)C(=O)NS(=O)(=O)C1(C)CC1 [Example 253] ? 9.58

Could you tell me which pKi is on file for C=C[C@@H]1C[C@]1(NC(=O)[C@@H]1C[C@@H]2CN1C(=O)[C@H](C(C)(C)C)NC(=O)O[C@@H]1C[C@H]1CCCCCc1c(nc3ccccc3c1OC1CC3CCC(C1)N3C(=O)OC(C)(C)C)O2)C(=O)NS(=O)(=O)C1(C)CC1 (single isomer, unassigned) [Example 273] ? 8.73

Could you tell me which pKi is on file for C=C[C@@H]1C[C@]1(NC(=O)[C@@H]1C[C@@H]2CN1C(=O)[C@H](C1CCCCC1)NC(=O)O[C@@H]1C[C@H]1CCCCCc1c(nc3ccccc3c1OCCCN1CCN(C)CC1)O2)C(=O)NS(=O)(=O)C1(C)CC1 [Example 251] ? 10.29

Could you tell me which pKi is on file for C=C[C@@H]1C[C@]1(NC(=O)[C@@H]1C[C@@H]2CN1C(=O)[C@H](C1CCCCC1)NC(=O)O[C@@H]1C[C@H]1CCCCCc1c(nc3ccccc3c1OC1CCN(CC3CC3)CC1)O2)C(=O)NS(=O)(=O)C1(C)CC1 [Example 238, formate] ? 10.33

Could you tell me which pKi is on file for C=C[C@@H]1C[C@]1(NC(=O)[C@@H]1C[C@@H]2CN1C(=O)[C@H](C1CCCCC1)NC(=O)O[C@@H]1C[C@H]1CCCCCc1c(nc3ccccc3c1OC1CC3COCC(C1)N3CC)O2)C(=O)NS(=O)(=O)C1(C)CC1 (some centres unmarked) [Example 290, formate] ? 9.90

Could you tell me which pKi is on file for C=C[C@@H]1C[C@]1(NC(=O)[C@@H]1C[C@@H]2CN1C(=O)[C@H](C1CCCCC1)NC(=O)O[C@@H]1C[C@H]1CCCCCc1c(nc3ccccc3c1OCCCNC1CC(F)(F)C1)O2)C(=O)NS(=O)(=O)C1(C)CC1 [Example 243] ? 9.56

Could you tell me which pKi is on file for C=C[C@@H]1C[C@]1(NC(=O)[C@@H]1C[C@@H]2CN1C(=O)[C@H](C1CCCCC1)NC(=O)O[C@@H]1C[C@H]1CCCCCc1c(nc3ccccc3c1OC1CC3CCC(C1)N3CCOC)O2)C(=O)NS(=O)(=O)C1(C)CC1 (some centres unmarked) [Example 284] ? 10.28
